target: Factor X (FX), P00742
Sequence (P00742 whole entry, looked up): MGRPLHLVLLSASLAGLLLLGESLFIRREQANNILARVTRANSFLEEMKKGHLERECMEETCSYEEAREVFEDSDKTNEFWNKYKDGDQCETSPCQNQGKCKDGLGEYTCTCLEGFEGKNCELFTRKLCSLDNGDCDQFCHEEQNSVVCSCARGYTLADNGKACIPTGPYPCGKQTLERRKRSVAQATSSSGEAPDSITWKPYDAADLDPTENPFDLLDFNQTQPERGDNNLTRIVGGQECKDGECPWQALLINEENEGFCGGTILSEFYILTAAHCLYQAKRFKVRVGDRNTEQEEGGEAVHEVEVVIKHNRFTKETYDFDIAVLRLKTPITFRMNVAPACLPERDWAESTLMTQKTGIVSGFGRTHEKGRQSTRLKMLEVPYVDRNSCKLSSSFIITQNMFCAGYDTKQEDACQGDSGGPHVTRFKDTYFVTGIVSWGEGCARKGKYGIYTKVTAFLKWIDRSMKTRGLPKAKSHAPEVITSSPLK
property-name: kcat (s⁻¹)
Hi! Could you send only the number? It should be in s⁻¹, unit omitted.

Exercise: Query: kcat; subject: FIXa-Y155F/K228N/R318Y/R338E/R403E/E410N (protein) chain 1: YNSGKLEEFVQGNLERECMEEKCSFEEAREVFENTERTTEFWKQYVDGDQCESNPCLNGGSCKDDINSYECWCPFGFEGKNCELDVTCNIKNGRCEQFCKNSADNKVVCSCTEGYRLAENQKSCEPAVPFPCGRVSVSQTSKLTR chain 2: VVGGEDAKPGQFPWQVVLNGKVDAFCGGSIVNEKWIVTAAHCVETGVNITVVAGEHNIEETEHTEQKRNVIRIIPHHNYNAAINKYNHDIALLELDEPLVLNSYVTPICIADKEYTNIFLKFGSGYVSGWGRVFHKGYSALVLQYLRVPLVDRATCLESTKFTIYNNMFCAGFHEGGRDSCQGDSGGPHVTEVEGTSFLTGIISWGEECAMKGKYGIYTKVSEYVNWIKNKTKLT
Key: 9.7

Where do these numbers come from? They come from patent US20210238260.
